Reference source: ChEMBL document CHEMBL3988442

system: Wolbachia pipientis; test: Anti-Wolbachia Cell-Based Screen; assay type: functional; set-up: scale not given: in the data most compounds retested in dose-response had high values; conditions: 5 µM
Screen size: about 48,000 compounds; about 13,000 (27%) showed an effect of 50% or more. The list shows a part of the results.
Assay Endpoint: Percent Effect (%)
Numbers only here, please. The scale is %.

Q) Form field: reported Percent Effect of Cc1nc(CN(C)C2CCCN(c3cccnn3)C2)nc2ccccc12 (configuration not stated)
A) 87.46

Q) Likewise for CN(C)C1CC2(CCN(C(=O)c3csnn3)CC2)c2ccccc21.O=C(O)C(F)(F)F (configuration not stated) ?
A) -2.029

Q) Also need CCC(CC)(CC)NC(=O)Nc1nnc(-c2ccccn2)s1 , thanks.
A) -4.465

Q) CCN(Cc1ccc(Cl)s1)S(=O)(=O)CC , same question.
A) -12.66

Q) Try the molecule O=C(C1CCN(c2ccnc3ccc(Br)cc23)CC1)N1CCOCC1
A) 20.8

Q) Please give the result for COc1ccc(C)cc1C(C)NC(=O)Cn1ccc(=O)n(C)c1=O (configuration not stated) too.
A) 121.4

Q) Entry CCOC1CC2(CCN(C(C)=O)CC2)c2cc(F)ccc21 (configuration not stated) please
A) -13.1

Q) Follow-up item: CCN(CC)c1ncccc1CNC(=O)c1cnn(CC)c1
A) -6.3

Q) Same for Cc1ccc(CNC(=O)c2ccc(CNS(C)(=O)=O)o2)cc1F
A) 2.956

Q) Query Cn1cc(-c2cnc(-c3ccnn3C)nc2)cc1C(=O)NC1CC1 next
A) 95.89

Q) Please give the result for Cn1ccnc1CNC(=O)N1CCCC(Cc2nccn2C)C1 (configuration not stated) too.
A) -2.047

Q) Likewise for CCOC1CCC2(CCN(C(=O)c3c[nH]cn3)CC2)c2ccccc21 (configuration not stated) ?
A) 107.8

Q) Further, for Cc1nccc(NCc2cncc3c2CCN(S(C)(=O)=O)C3)n1.Cl ?
A) 65.34

Q) Please do the same for Cc1nc2ccccc2nc1CN(C)C1CCCN(c2cccnn2)C1 (configuration not stated) as well.
A) 3.642

Q) Cool, now Cc1ccc(CNS(=O)(=O)CCCC#N)cc1F
A) 111.5

Q) Check CCN(CC)c1ncccc1CNCc1cc2ccccc2s1 too.
A) 111.2

Q) Next molecule: CC1CC2(CCN(C(=O)c3c[nH]cn3)CC2)c2ccccc21 (configuration not stated)
A) 62.95

Q) Next record, please: COc1ccc(C(O)CNC(=O)Cn2ccc(=O)n(C)c2=O)cc1 (configuration not stated)
A) 1.675

Q) CCOC1CC2(CCN(c3cnccn3)CC2)c2ccccc21 (configuration not stated) ?
A) 15.96

Q) And the next one, Cc1ccc(CNC(=O)NC(C)CCS(C)(=O)=O)cc1F (configuration not stated) ?
A) -1.224

Q) Moving on to O=C(CCCc1ccccc1)Nc1cnc(N2CCOCC2)nc1
A) -16.01

Q) Likewise for Cn1nccc1-c1ncc(-c2cc(C(=O)O)n(CC3CC3)c2)cn1 ?
A) 118.9

Q) Now consider CN(c1ncnc2c1cnn2C)C1CCCN(c2cccnn2)C1 (configuration not stated) and answer again.
A) -20.96

Q) Repeat for the following molecule: CS(=O)(=O)NCc1ccc2c(c1)CCC2
A) -9.378

Q) What do you get for CC(O)CCN(C)c1nc2ccccc2c(=O)[nH]1 (configuration not stated) ?
A) 20.77

Q) Also need COCCS(=O)(=O)NCc1ccc(N(C)C)c(C)c1 , thanks.
A) 78.12

Q) Next: CCOC1CCC2(CCN(C(=O)c3csnn3)CC2)c2ccccc21 (configuration not stated)
A) 117.6
